Tested on: IGROV1 ovarian
experimental.protocol: NCI-60 one-dose screen, 48 h (100 = growth as untreated, 0 = no growth, -100 = all killed)
condition.summary: 10 µM unless noted
This is part of a sample that, as a whole, favours compounds with a hit. Of some 83,000 tested, about 20% had one in any assay. The source made the active and inactive calls. How the source made its calls: active means growth percent below 10; inactive means the rest.
Recorded growth, one value per entry.

compound	target	growth
Clc1ccc(-c2cc(-c3ccccc3)nc(NCCNc3ccnc4cc(Cl)ccc34)n2)cc1	IGROV1 ovarian	-61.3% (active)
COc1cc(-c2nc3cc(Cl)c(Cl)cc3[nH]2)ccc1OCC(=O)N=Nc1c(O)[nH]c2ccc(Cl)cc12	IGROV1 ovarian	-0.308% (active)
Cc1ccc(C)c2c(C)c(C(=O)Nc3cccc(-n4cccn4)c3)oc12	IGROV1 ovarian	76.3% [50 µM] (inactive)

growth value, target or system IGROV1 ovarian, for "CC(=O)c1ccc(Nc2nccc(-c3ccc4ccccc4c3)n2)cc1" : 86.3% (inactive)

growth value, target or system IGROV1 ovarian, for "O=C(CC(=O)Nc1cccc(C(=O)O)c1)Nc1cccc(C(=O)O)c1" : 109% (inactive)

growth value, target or system IGROV1 ovarian, for "N#C/C(=C\c1ccc([N+](=O)[O-])cc1)n1nnc2cc(F)c(F)cc21" : -10.9% (active)

growth value, target or system IGROV1 ovarian, for "COC(=O)c1cc(Br)ccc1O" : 110% (inactive)

growth value, target or system IGROV1 ovarian, for CCN1C(=O)N(CC)C2C1N=C(SCc1ccc(Cl)cc1)N2/N=C/C=C/c1ccccc1OC (stereo unspecified) : 78.6% (inactive)

* * *

Recorded growth, one value per entry.
System: T-47D breast
experimental.protocol: NCI-60 one-dose screen, 48 h (100 = growth as untreated, 0 = no growth, -100 = all killed)
condition.summary: 10 µM unless noted
This is part of a sample that, as a whole, favours compounds with a hit. Of some 83,000 tested, about 20% had one in any assay. Activity calls are given as the source filed them. Rule for the calls: active = growth percent below 10; inactive = the rest.

Look over these answered cases.
compound	target	endpoint.value
Cc1c(CC(=S)N2CCOCC2)nnn1-c1cccc(C(F)(F)F)c1	T-47D breast	103% (inactive)
CN(C)CCCC1(c2ccc(F)cc2)OCc2cc(-c3cc4ccccc4s3)ccc21 (stereo unspecified)	T-47D breast	-2.98% (active)
CCOC(=O)c1nn(CC(O)c2ccccc2)c(NC(=O)Nc2cccc(F)c2)c1C (stereo unspecified)	T-47D breast	90.1% (inactive)
C=C1C(=O)O[C@H]2[C@H]1CC/C(CNC(=O)c1c[nH]c3ccc(F)cc13)=C\CC[C@@]1(C)O[C@@H]21	T-47D breast	-39.6% (active)
NC1=Nc2cc(OCCCCN3Cc4ccccc4C3)c(OCC3CC3)cc2C12CCCC2	T-47D breast	-46.9% (active)

For reference, reported growth for "Cc1ccc(-c2nc(/C=C3/C(=O)Nc4ccc(F)cc43)c3ccccn23)cc1" stands at 100% (inactive)

* * *

Tested on: UACC-62 melanoma
experimental.protocol: NCI-60 one-dose screen, 48 h (100 = growth as untreated, 0 = no growth, -100 = all killed)
condition.summary: 10 µM unless noted
Protocol: Growth inhibition of the UACC-62 human tumor cell line is measured as a screen for anti-cancer activity. Cells are grown in 96 well plates and exposed to the test compound for 48 hours. Compounds are tested at a single concentration, which is 10^-5 M for most compounds. The reported endpoint is percent growth (GI% or GIPRCNT), where numbers from 0 - 100% represent growth inhibition, and numbers from -100% - 0 represent cell death. For example, a value of 40 represents 60% growth inhibition. […]
This is part of a sample that, as a whole, favours compounds with a hit. Of some 83,000 tested, about 20% had one in any assay.
Recorded growth, one value per entry.
Supply the numeric figure in %, leaving out any unit text.

molecule	growth, %
CC(C)(C)n1cc(-c2ccnc(NCCNS(=O)(=O)c3ccc(O)cc3)c2)c(-c2cccc(O)c2)n1	101

For reference, reported growth for Nc1ncnc2c1N=C(c1ccc3c(c1)OCO3)CC(c1cccc(Nc3ccnc4cc(C(F)(F)F)ccc34)c1)N2 (stereo not given) stands at 87.1

For reference, reported growth for "O=c1cc(-c2ccccc2)[nH]c2ncc(-c3ccc(F)cc3)n12" stands at 36.6

For reference, reported growth for OCCNCCNC(Cc1ccc(Cl)cc1)c1ccccc1 (stereo not given) stands at 59.7

For reference, reported growth for "C#CC#CC#CC#CC#CC#CC#CC#CC[C@@H]1OC[C@@H](COC(=O)O[C@@H](C(=O)O[C@H]2C[C@@]3(O)[C@@H](OC(=O)c4ccccc4)[C@@H]4[C@]5(OC(C)=O)CO[C@@H]5C[C@H](O)[C@@]4(C)C(=O)[C@H](OC(C)=O)C(=C2C)C3(C)C)[C@@H](NC(=O)c2ccccc2)c2ccccc2)O1" stands at 25.2

* * *

Recorded growth, one value per entry.
Tested on: OVCAR-8 ovarian
experimental.protocol: NCI-60 one-dose screen, 48 h (100 = growth as untreated, 0 = no growth, -100 = all killed)
condition.summary: 10 µM unless noted
This is part of a sample that, as a whole, favours compounds with a hit. Of some 83,000 tested, about 20% had one in any assay. Activity calls are given as the source filed them. The calls were made as follows: active = growth percent below 10; inactive = the rest.

growth value, target or system OVCAR-8 ovarian, for "FC(F)(F)Oc1cccc(-c2cnc3ccc(-c4ccncc4)nn23)c1" : 14.3% (inactive)

growth value, target or system OVCAR-8 ovarian, for "COc1ccc(/C=C(/C(=O)n2cnnn2)c2cc(OC)c(OC)c(OC)c2)cc1" : 22.1% (inactive)

growth value, target or system OVCAR-8 ovarian, for "O=C1/C(=C/c2ccc(F)cc2)CN(C(=O)C(Cl)Cl)C/C1=C\c1ccc(F)cc1" : -9.41% (active)

growth value, target or system OVCAR-8 ovarian, for "COc1cc(/C=C2\CN(S(=O)(=O)c3ccccc3)C/C(=C\c3cc(CN4CCCCC4)c(O)c(OC)c3)C2=O)cc(CN2CCCCC2)c1O" : -25% (active)

growth value, target or system OVCAR-8 ovarian, for "C=C1C(=O)O[C@H]2[C@H]1CC/C(COC(=O)CSCSCC(=O)OC/C1=C/CC[C@@]3(C)O[C@H]3[C@H]3OC(=O)C(=C)[C@@H]3CC1)=C\CC[C@@]1(C)O[C@@H]21" : 5.96% (active)

* * *

System: HCT-116 colon
experimental.protocol: NCI-60 one-dose screen, 48 h (100 = growth as untreated, 0 = no growth, -100 = all killed)
condition.summary: 10 µM unless noted
This is part of a sample that, as a whole, favours compounds with a hit. Of some 83,000 tested, about 20% had one in any assay.
Everything with growth lower than 20% is 0.0; everything else, including exactly 20%, is 1.0.

Here's what some known entries look like.
Cc1ccc(CNc2ccc3nc(CCC(C)C)[nH]c3c2)cc1 1.0
O=C(O)c1ccc(-c2ccc(/C=N/Nc3nc(Nc4ccccc4)nc(N4CCCCC4)n3)o2)cc1 1.0
Nc1c(C(=O)Nc2cccc(Cl)c2)sc2nc3c(cc12)CCCC3 1.0
C=CCC(CCCC)(C(=O)OCC)C(=O)OCC 1.0

[ask] Please check the record "CC/C(Cc1ccccc1)=C(\c1ccc(OCCCN(C)C)cc1)c1ccc(OC(=O)NCc2ccccc2)cc1" and state if its growth is at or above 20%.
[reply] 0.0

[ask] Please check the record "C=Cc1cnc(Nc2ccc(OC)cc2)nc1NCCCNC(=O)C1CCC1" and state if its growth is at or above 20%.
[reply] 1.0

* * *

System: DU-145 prostate
experimental.protocol: NCI-60 one-dose screen, 48 h (100 = growth as untreated, 0 = no growth, -100 = all killed)
condition.summary: 10 µM unless noted
Compounds without any hit were thinned out: in the full panel of roughly 83,000, 20% have a hit.
reported.property: growth (%)
Supply the numeric figure in %, leaving out any unit text.

Look over these answered cases.
CN1CCN(C(=S)SCCCCOc2cc(=O)oc3ccccc23)CC1 90.6
CC(=O)/C(=C/c1ccc([N+](=O)[O-])cc1)C(=O)c1ccccc1 92.6

// switching to the query molecule
For reference, reported growth for "CC(C)(C)n1cc(-c2ccnc(NCCCNS(=O)(=O)c3ccc(C(F)(F)F)cc3)c2)c(-c2cccc(F)c2)n1" stands at 92.6

* * *

Tested on: OVCAR-4 ovarian
experimental.protocol: NCI-60 one-dose screen, 48 h (100 = growth as untreated, 0 = no growth, -100 = all killed)
condition.summary: 10 µM unless noted
Compounds without any hit were thinned out: in the full panel of roughly 83,000, 20% have a hit.
# if measured growth < 70%: yes  # else: no

Here's what some known entries look like.
compound	group.label
CCN(CC)CCCN1C(=O)c2c(c(C)c3c(oc4ccc(OC)cc43)c2C)C1=O	no
Cc1ccc(-c2nc(/C=C3/C(=O)Nc4ccc(F)cc43)c3ccccn23)cc1	yes

[ask] Does this compound meet the criterion growth < 70%? "CCCCC#Cc1c(I)n(C)c(=O)[nH]c1=O"
[reply] yes

[ask] Does this compound meet the criterion growth < 70%? "O=C(Nc1ccc(Br)cc1)C1=NCCCCN1"
[reply] no

[ask] Does this compound meet the criterion growth < 70%? CCCCCCCCCCCCCCCCCC1=NC(C)(C)CN1CC(C)O (centres undefined)
[reply] no
